Cited source for all entries: ChEMBL document CHEMBL1201862

- System: HT-29
- Test Name: NCI tumour cell line growth inhibition, 48 h
Activity calls are given as the source filed them. Rule as the data show it: active = GI50 up to about 1.1 µM and inactive = higher.
Result Type: GI50

CC(=O)O[C@H]1C#C/C=C\C#CC[C@@H]2C(=O)N[C@@H]12 | > 49.8 µM (inactive)
O=C1c2cccc(O)c2C(=O)c2c(O)cc(CO)cc21 [ALOE-EMODIN] | 30.9 µM (inactive)
CC1=N/C(=C\c2ccc(N)cc2)C(=O)N1Nc1nnc(NN2C(=O)/C(=C/c3ccc(N)cc3)N=C2C)c2ccccc12 | > 100 µM (inactive)
O=C1c2cccc3c(Cl)ccc(c23)C(=O)N1CCCN1CCN(CCCN2C(=O)c3cccc4c(Cl)ccc(c34)C2=O)CC1 | > 100 µM (inactive)
C[n+]1c(-c2ccc(/C=N\Nc3ccnc(N/N=C/c4ccc(-c5cn6ccsc6[n+]5C)cc4)n3)cc2)cn2ccsc21 | 9.93 µM (inactive)
Cc1cc(C(=C2C=CC(=[N+](C)C)C=C2)c2ccc([N+](C)(C)C)cc2)ccc1N(C)C | 5.08 µM (inactive)
COC(=O)[C@]1(c2cc3ccccc3[nH]2)CC2CN(C(=O)OCc3ccccc3)C1CC2=O (stereo partly specified) | 15.5 µM (inactive)
O=C1C=CC(CC(=O)c2ccc3ccccc3c2)O1 (stereo unspecified) | 19.1 µM (inactive)
c1ccc(CCN2CCc3[nH]c4ccccc4c3C2)cc1 | 14.1 µM (inactive)
O=C1O/C(=C\c2ccc(O)c(Br)c2)C(c2ccc(O)c(Cl)c2)=C1Br | 12.9 µM (inactive)

Could you now consider this next molecule?
# input molecule: O=c1oc2ccc3ccccc3c2cc1-c1cn2c(n1)sc1ccccc12 ; wanted: its GI50 > 100 µM (inactive)

###

- System: SK-MEL-28
- Test Name: NCI tumour cell line growth inhibition, 48 h
Active and inactive are the calls of the source. No stated cut-off is given here; in the data, active = GI50 up to about 1.1 µM and inactive = higher.
Answer with one of the outcomes TRUE (active), FALSE (inactive)

CCOC(=O)C(=O)Nc1ccc(C)c(C)c1 | FALSE
COC(=O)C1C(=O)CC2CCCCC21 (configuration not stated) | FALSE

Hello, I am checking results. What call was entered for CCOP1(=O)C=C(C)C(Cl)=C(C)C1 (configuration not stated) ? FALSE

I'd appreciate the recorded outcome for CC(=O)Oc1ccc2cc(Oc3ccc(Cl)cc3)c(=O)oc2c1 from this test. FALSE

Any idea what this test logged for COC1CC(C)C(OC)C2=CC(=O)C=C(NC(=O)/C(C)=C/C=C\C(C)C(OC(N)=O)/C(C)=C\C(C)C1OC)C2=O (configuration not stated) ? TRUE

Please let me know the test result on file for N#CCCC[Si]12OCCN(CCO1)CCO2 . FALSE

Status in this test for CC(C)CC(=O)N1CCN(C(=O)CC(C)C)c2ccccc21 ? FALSE

###

- Tested on: SK-MEL-28
- Test Name: NCI tumour cell line growth inhibition, 48 h
Active and inactive are the calls of the source. Rule as the data show it: active = GI50 up to about 1.1 µM and inactive = higher.
Outcome (select one): Y for active, N for inactive

Look over these answered cases.
CC(NC(=O)OC(C)(C)C)C(=O)NC1CCCC1 (stereo not drawn) | N
Cc1cc(C)nc(NS(=O)(=O)c2ccc(NC(=O)c3cccc4c(N)c5ccccc5nc34)cc2)n1 | N
O=C1/C(=C/c2cccc3ccccc23)CCc2ccc([N+](=O)[O-])cc21 | N
COC1C(CO)OC(n2c3c(Cl)cccc3c3c4c(c5c6cccc(Cl)c6[nH]c5c32)C(=O)NC4=O)C(O)C1O (stereo not drawn) | Y
Cc1cc(C)c2c(=O)n(CN3CCC(O)(c4ccccc4)CC3)sc2n1 | N

What did this assay record as the result for CN(C(=O)CCC(=O)O)c1ccccc1C(=O)O ? N

I'd appreciate the recorded outcome for Nn1c(CCCCCCCCc2nnc(COc3ccccc3)n2N)nnc1COc1ccccc1 from this test. N

Please state the recorded outcome for this compound: CC1=C2C(c3ccccc3)(c3ccccc3)C3C=CC2(C=N3)N(C(=O)NC2CCCCC2)C1=O (stereo not drawn) N
